experiment: PhoP-dependent GFP reporter repression – Salmonella Typhimurium, primary screen (AID 1863);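 also: 0% = low Mg2+ inducing control and 100% = high Mg2+ repressing control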; conditions: S. Typhimurium PhoP-regulated promoter GFP reporter, 4 h; at 50 µM; active compounds read high
The campaign covered roughly 300,000 compounds. About 480 (0.16%) were called active. Only a sample is shown. Results with a measured potency or affinity are listed apart.
property_label: inhibition (%)
Write the number in % without appending the unit.

Previously resolved entries follow.
# compound, measurement_units, inhibition
data = [
    ("CC(C)(CO)NCc1c(OCc2ccc(Cl)cc2)ccc2ccccc12", "%", -7.49),
    ("O=C(c1oc(=O)c2ccccc2c1-c1ccccc1)N1CCC(O)CC1", "%", 18.1),
    ("O=C1CCCN1CCCNS(=O)(=O)c1ccccc1", "%", 10.7),
]

Please look up its inhibition: CCn1cc(C(=O)O)c(=O)c2cnc(N3CCN(C(=S)NC(=O)c4ccc(F)c(F)c4)CC3)nc21
7.64

Please look up its inhibition: COc1cccc(CN2CCN(Cc3cc(OC)c(OC)cc3OC)CC2)c1
-6.37

Please look up its inhibition: CO[C@H]1C=CO[C@@]2(C)Oc3c(C)c(O)c4c(O)c(c5c(nc6cc(C)ccn65)c4c3C2=O)NC(=O)C(C)=CC=C[C@H](C)[C@H](O)[C@@H](C)[C@@H](O)[C@@H](C)[C@H](OC(C)=O)[C@@H]1C
-3.25

Please look up its inhibition: CCCCOC(=O)Cn1c(=N)n(CCC)c2ccccc21
8.26

Please look up its inhibition: COc1cc(C(C[N+](=O)[O-])c2c(N)n(C)c(=O)n(C)c2=O)ccc1O (stereo not drawn)
-4.81

---

test: PhoP-dependent GFP reporter repression – Salmonella Typhimurium, primary screen (AID 1863);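 also: 0% = low Mg2+ inducing control and 100% = high Mg2+ repressing control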; conditions: S. Typhimurium PhoP-regulated promoter GFP reporter, 4 h; at 50 µM; active compounds read high
Screen size: about 300,000 compounds; about 480 (0.16%) were called active. The list is a sample of the results. Measured potencies and affinities stand elsewhere.
property_label: inhibition (%)
Write the number in % without appending the unit.

# compound, inhibition [%]
measured = [
    ("CCN(CC)c1ccc(/C=N/Nc2nc(C)cc(=O)[nH]2)c(O)c1", 6.35),
    ("Cc1ccc(S(=O)(=O)NC(=O)NCc2ccc(F)cc2)cc1", -2.51),
]

Please look up its inhibition: CCOC(=O)COc1cc([N+](=O)[O-])cc2cccnc12
1.41

Please look up its inhibition: COCC(=O)Nc1ccc(N2CCN(c3ccccc3)CC2)c(F)c1
21.5

Please look up its inhibition: O=[N+]([O-])c1ccccc1CNC1CCCc2ccccc21 (centres undefined)
-9.02

Please look up its inhibition: COc1ccc2[nH]c3c(=S)nc[nH]c3c2c1
11.1

Please look up its inhibition: Cc1cccc(C)c1NC(=O)CCCCCC1NC(=O)NC1C (centres undefined)
2.4

Please look up its inhibition: CC(C)(C)c1ccc(C(=O)N2CCC(C(=O)NCc3ccncc3)CC2)cc1
-6.15

Please look up its inhibition: COc1ccccc1NS(=O)(=O)c1ccc(Cl)c(NC(=O)c2sc3cc(Cl)ccc3c2Cl)c1
5.27

---

experiment: PhoP-dependent GFP reporter repression – Salmonella Typhimurium, primary screen (AID 1863);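 also: 0% = low Mg2+ inducing control and 100% = high Mg2+ repressing control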; conditions: S. Typhimurium PhoP-regulated promoter GFP reporter, 4 h; at 50 µM; active compounds read high
Screen size: about 300,000 compounds; about 480 (0.16%) were called active. These entries were drawn from the full list. Entries with a potency or affinity are not part of this list.
property_label: inhibition (%)
Write the number in % without appending the unit.

Previously resolved entries follow.
# compound, property_label, assay_result
measured = [
    ("CC1CCC2(CC1)NC(=O)N(CC(=O)c1cn(CCC#N)c3ccccc13)C2=O (stereo not given)", "inhibition", -10.8),
    ("CCCC[n+]1c2ccccc2cc2ccccc21", "inhibition", 20.6),
    ("Cc1ccccc1/C=N/Nc1ccc(Cl)nn1", "inhibition", 1.24),
]

Please look up its inhibition: Cc1cc(=O)oc2cc(OCC3CC(c4ccc(Br)cc4)=NO3)ccc12 (stereo not given)
-2.2

Please look up its inhibition: COc1cccc(C(=O)Nc2cnc(NC(=O)c3ccco3)cc2C)c1
12.2
